The measured values listed here are drawn from paper PMC8693751.

system: L. amazonensis promastigotes; assay: Leishmanicidal activity against promastigote forms, L. amazonensis; type: cell-based, Leishmania amazonensis; conditions: Leishmania amazonensis, 72 h, read-out: Promastigotes IC50L.Ama, 72 hours
Lab note: anything with IC50 below 90 µM is marked y; values at 90 µM or higher are marked n.

INSERT INTO measurements (compound, assayed_system, assigned_category) VALUES
  ('CCOC(=O)CC1SC(=NN=Cc2cccc(O)c2)NC1=O (centres unmarked) [2k]', 'L. amazonensis promastigotes', 'n'),
  ('CCOC(=O)c1csc(NN=Cc2cccc(Br)c2)n1 [1e]', 'L. amazonensis promastigotes', 'n'),
  ('CCOC(=O)CC1SC(=NN=Cc2ccccc2)NC1=O (centres unmarked) [2a]', 'L. amazonensis promastigotes', 'n'),
  ('CCOC(=O)CC1SC(=NN=Cc2ccccc2OC)NC1=O (centres unmarked) [2j]', 'L. amazonensis promastigotes', 'n'),
  ('CCOC(=O)CC1SC(=NN=Cc2ccccc2Cl)NC1=O (centres unmarked) [2c]', 'L. amazonensis promastigotes', 'n'),
  ('CCOC(=O)CC1SC(=NN=Cc2ccc(Br)cc2)NC1=O (centres unmarked) [2d]', 'L. amazonensis promastigotes', 'y'),
  ('CCOC(=O)CC1SC(=NN=Cc2ccccc2[N+](=O)[O-])NC1=O (centres unmarked) [2h]', 'L. amazonensis promastigotes', 'y'),
  ('CCOC(=O)CC1SC(=NN=C2CCCc3ccccc32)NC1=O (centres unmarked) [2o]', 'L. amazonensis promastigotes', 'n'),
  ('CCOC(=O)CC1SC(=NN=Cc2ccc([N+](=O)[O-])cc2)NC1=O (centres unmarked) [2f]', 'L. amazonensis promastigotes', 'y'),
  ('CCOC(=O)c1csc(NN=Cc2ccco2)n1 [1h]', 'L. amazonensis promastigotes', 'n');
